- testDescription: In vitro human skin penetration, Franz diffusion chamber
- Format: in vitro ADME
- conditionDescription: 0.03% in Formulation A; applied agent; dermis at 48 hrs
endpointName: Percentage Dose Applied, Upper ⅓ Dermis, Prodrug (%)

{"columns": ["compound", "measValue"],
 "data": [
  ["CCNC(=O)CCC/C=C\\C[C@@H]1[C@@H](/C=C/[C@@H](O)CCc2ccccc2)[C@H](OC(=O)CC)C[C@@H]1O", 2.1]
]}

A. CCNC(=O)CCC/C=C\C[C@@H]1[C@@H](/C=C/[C@H](CCc2ccccc2)OC(C)=O)[C@H](O)C[C@@H]1O
B. CCNC(=O)CCC/C=C\C[C@@H]1[C@@H](/C=C/[C@H](CCc2ccccc2)OC(=O)CC)[C@H](O)C[C@@H]1O
C. CCNC(=O)CCC/C=C\C[C@@H]1[C@@H](/C=C/[C@@H](O)CCc2ccccc2)[C@H](O)C[C@@H]1O [bimatoprost, reference compound]
In: Kindly order the items shown according to Percentage Dose Applied, Upper ⅓ Dermis, Prodrug, from the highest value down. As an answer, provide the labels arranged in the order called for.
Out: C, A, B
(C: 7.0%, A: 3.8%, B: 1.9%)
